B1: mRNA-splicing (parent)
chain: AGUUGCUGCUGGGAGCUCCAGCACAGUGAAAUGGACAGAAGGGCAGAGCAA

variants of: B1; assay: exon inclusion enrichment index; higher = more inclusion; WT1 exon 5 minigene, HEK293
Quantity Name: exon inclusion enrichment index

AGUUAUAUAUGGGAGCGUCAGCACAGUGAAAUGGACAGAAGGGCAGAGCAA :: 0.0294
AGUUACCACCGGGAGCUCCAGCACAGUGAAAUGGACAGAAGCCCAGAGCAA :: 3.5
AGUUUCUUUUGGGACCUCCAGCACAGUGAAAUGGACAGAAGGGCAGAGCAA :: 0.196
AGUUGACGACGGGAGCUCCAGCACAGUGAAAUGGACAGAAGGAUAGAGCAA :: 3.22
AGUUGAAGAAGGGAGCAUCAGCACAGUGAAAUGGACAGAAGGGCAGAGCAA :: 0.445
AGUUAGGGAUGGGAGCUCCAGCACAGUGAAAGAGACAGAAGGGCAGAGCAA :: 0.00113
AGUUGAAGAAGGGAGCUCCAGCACAGUGAAAUCGACAGAAGGGCAGAGCAA :: 1.04
AGUUCGCGCCGGGAGCUCCACUACAGUGAAAUGGACAGAAGGGCAGAGCAA :: 3.43
AGUUACCACCGGGAGCUCCAGCAUGGUGAAAUGGACAGAAGGGCAGAGCAA :: 3.39
AGUUGAAGAAGGGAGCUCCAGCACAGUGAAAUGGACAGACAGGCAGAGCAA :: 0.218
AGUUACCACCGGGAGAUCCAGCACAGUGAAAUGGACAGAAGGGCAGAGCAA :: 2.46
AGUUCUUCUCGGGAGCUCCAGCACUCUGAAAUGGACAGAAGGGCAGAGCAA :: 2.38
AGUUAGGGAUGGGAGCUCCAGCACAUGGAAAUGGACAGAAGGGCAGAGCAA :: 0.00474
AGUUUCUUGGGGGAGCUCCAGCACAGUGAAAUGGACAGAAGGGCAGAGCAA :: 0.108
AGUUACCACCGGGAGCUCCAGCACAGUGAAAUGGACAGAAGAACAGAGCAA :: 4.61
AGUUACCACCGGGAGCUCCAGCACAGAUAAAUGGACAGAAGGGCAGAGCAA :: 0.834
AGUUCGCGCGGGGAGCUCCAGCACAGUGAAAUGGACAGAAGGGCAGAGCAA :: 1.86
AGUUCACACAGGGAGCUCAUGCACAGUGAAAUGGACAGAAGGGCAGAGCAA :: 0.00249
AGUUCUUCUCGGGAGCUCCAGCACAGUGAAAUGGAAAGAAGGGCAGAGCAA :: 1.44
AGUUCACACAGGGAGCUCCAGCAAAGUGAAAUGGACAGAAGGGCAGAGCAA :: 0.105
AGUUACUGCUGGGAGCUCCAGCACAGUGAAAUGGACAGAAGGGCAGAGCAA :: 0.039
AGUUCUUCUCGGGAGCUCCAGCACAGUGAAAUGGAUGGAAGGGCAGAGCAA :: 1.74
AGUUGACGUUGGGAGCUCCAGCACAGUGAAAUGGACAGAAGGGCAGAGCAA :: 1.42
AGUUGAAGAAGGGAGCUCCAGCACAGUGACGUGGACAGAAGGGCAGAGCAA :: 1.45
AGUUACCACCGGGAGCUCCAGCACAGUGAAAUGGACAGAAAUGCAGAGCAA :: 1.8
AGUUCUUCUCGGGAGCUCCAGCACAGUGAAAUGGACAGAAGGGUGGAGCAA :: 1.03
AGUUCGCGCCGGGAGGACCAGCACAGUGAAAUGGACAGAAGGGCAGAGCAA :: 4.71
AGUUCGCGCCGGGAGCUCCAGCACAGUGAAAUGGACAGAUGGGCAGAGCAA :: 2.71
AGUUCACACAGGGAGCUCCAGCACAGUGAAAUGGAGUGAAGGGCAGAGCAA :: 0.0414
AGUUACCACCGGGAGCUCCAGAUCAGUGAAAUGGACAGAAGGGCAGAGCAA :: 2.17
AGUUGAAGAAGGGAGCUCCAGCACAGUGAAAUGGACAGAAGGGUGGAGCAA :: 0.419
AGUUAUAUAUGGGAGCUCCAGCACAGUGAAAUGGACAGCAGGGCAGAGCAA :: 0.0192
AGUUGCUGCUGGGAGGGCCAGCACAGUGAAAUGGACAGAAGGGCAGAGCAA :: 0.0697
AGUUGAAUAAGGGAGCUCCAGCACAGUGAAAUGGACAGAAGGGCAGAGCAA :: 0.117
AGUUCGCGCCGGGAGCUCUAGCACAGUGAAAUGGACAGAAGGGCAGAGCAA :: 0.492
AGUUGCUGCUGGGGCCUCCAGCACAGUGAAAUGGACAGAAGGGCAGAGCAA :: 0.0893
AGUUAGGGAUGGGAGCUCCAGCACAGUGAAAUGAUCAGAAGGGCAGAGCAA :: 0.00125
AGUUCGAUAUGGGAGCUCCAGCACAGUGAAAUGGACAGAAGGGCAGAGCAA :: 1.06
AGUUCUUCUCGGGAGCUCCUGCACAGUGAAAUGGACAGAAGGGCAGAGCAA :: 2.17
AGUUAGGGAUGGGAGCUCCAGCACAGGAAAAUGGACAGAAGGGCAGAGCAA :: 0.00077
AGUUUCUUUUGGGAGCUCCAGCACAGUGAAAUGGACAGGAGGGCAGAGCAA :: 0.0522
AGUUCACACAGGGAGCUCCAGCACAGUGAUAUGGACAGAAGGGCAGAGCAA :: 0.0402
AGUUGAAGAAGGGAGCUCCAGCACAGUGAAAUGGACAGAAGGGCAGAGCAA :: 0.801
AGUUGAAGAGAGGAGCUCCAGCACAGUGAAAUGGACAGAAGGGCAGAGCAA :: 1.24
AGUUACCACCGGGAGCUCCUACACAGUGAAAUGGACAGAAGGGCAGAGCAA :: 1.36
AGUUGACGACGUGAGCUCCAGCACAGUGAAAUGGACAGAAGGGCAGAGCAA :: 2.7
AGUUUCUUUUUAGAGCUCCAGCACAGUGAAAUGGACAGAAGGGCAGAGCAA :: 0.00214
AAGUGAAGAAGGGAGCUCCAGCACAGUGAAAUGGACAGAAGGGCAGAGCAA :: 0.935
AGUUAGGGAUGGGAGCUCCAAGACAGUGAAAUGGACAGAAGGGCAGAGCAA :: 0.00502
AGUUAGGGAUGGGAGCUCCAGCACAGAGAAAUGGACAGAAGGGCAGAGCAA :: 0.00261
AGUUUCUUUUUUGAGCUCCAGCACAGUGAAAUGGACAGAAGGGCAGAGCAA :: 0.00578
AGUUAGGGAUGGGAGCUCCAGCACAGUGACUUGGACAGAAGGGCAGAGCAA :: 0.00118
AGUUCACACAGGGAGCUCCAGCACAGUGAAAUGGACAGAAGGGCGCAGCAA :: 0.26
AGUUGACGACGGGAGCUAUAGCACAGUGAAAUGGACAGAAGGGCAGAGCAA :: 0.374
AGUUGACGUGGGGAGCUCCAGCACAGUGAAAUGGACAGAAGGGCAGAGCAA :: 0.298
AGUUGACGACGGGAGCUCCAUUACAGUGAAAUGGACAGAAGGGCAGAGCAA :: 1.78
AGUUGACGACGGGAGCUCCAGCACAGUGAAAUGAACAGAAGGGCAGAGCAA :: 2.27
AGUUCUUCUCGGGAGCUCCAGCACAGUGAAAUGGAUCGAAGGGCAGAGCAA :: 1.55
AGGAGAAGAAGGGAGCUCCAGCACAGUGAAAUGGACAGAAGGGCAGAGCAA :: 0.213
AGUUAUAUAUGGGAGCUCCAGCCAAGUGAAAUGGACAGAAGGGCAGAGCAA :: 0.0996
AGUUCACACAGGGAGCUCCAGCACAGUGAACGGGACAGAAGGGCAGAGCAA :: 0.221
AGUUGAACGAGGGAGCUCCAGCACAGUGAAAUGGACAGAAGGGCAGAGCAA :: 0.781
AGUUAGGGAUGGGACUUCCAGCACAGUGAAAUGGACAGAAGGGCAGAGCAA :: 0.000839
AGUUUCUUUUGGGAGCUCCUCCACAGUGAAAUGGACAGAAGGGCAGAGCAA :: 0.1
AGUUAUAUAUGGGAGCUCCAGCAUCGUGAAAUGGACAGAAGGGCAGAGCAA :: 0.546
AGUUCACACAGGGAGCUCCAGCACAGUCCAAUGGACAGAAGGGCAGAGCAA :: 0.0814
AGUUAUAUAUGGGGUCUCCAGCACAGUGAAAUGGACAGAAGGGCAGAGCAA :: 0.00355
AGUUACCACCUAGAGCUCCAGCACAGUGAAAUGGACAGAAGGGCAGAGCAA :: 0.117
AGUUGACGACGGGAGCUCCAGCACAGUGAAAUCCACAGAAGGGCAGAGCAA :: 2.01
AGUUCGUUCCGGGAGCUCCAGCACAGUGAAAUGGACAGAAGGGCAGAGCAA :: 2.67
AGUUAUAUAUGGGAGCUCCAGCGCAGUGAAAUGGACAGAAGGGCAGAGCAA :: 0.157
AGUUACCACCGGGAGCUCCAGCACAGUGAAAUGGACACUAGGGCAGAGCAA :: 0.229
AGUUACCACCGGGAGCUCCAGCACAGUGAAAUGGACAGAAGGGUCGAGCAA :: 3.16
AGUUAUAUAUGGGAGCUCCAGCACAUGGAAAUGGACAGAAGGGCAGAGCAA :: 0.261
AGUUGAAGAAGGGAGCUCCAGCACGGUGAAAUGGACAGAAGGGCAGAGCAA :: 1.94
